Biological target: Acetylcholinesterase (Rattus norvegicus, UniProt P37136)
Sequence (P37136 whole entry): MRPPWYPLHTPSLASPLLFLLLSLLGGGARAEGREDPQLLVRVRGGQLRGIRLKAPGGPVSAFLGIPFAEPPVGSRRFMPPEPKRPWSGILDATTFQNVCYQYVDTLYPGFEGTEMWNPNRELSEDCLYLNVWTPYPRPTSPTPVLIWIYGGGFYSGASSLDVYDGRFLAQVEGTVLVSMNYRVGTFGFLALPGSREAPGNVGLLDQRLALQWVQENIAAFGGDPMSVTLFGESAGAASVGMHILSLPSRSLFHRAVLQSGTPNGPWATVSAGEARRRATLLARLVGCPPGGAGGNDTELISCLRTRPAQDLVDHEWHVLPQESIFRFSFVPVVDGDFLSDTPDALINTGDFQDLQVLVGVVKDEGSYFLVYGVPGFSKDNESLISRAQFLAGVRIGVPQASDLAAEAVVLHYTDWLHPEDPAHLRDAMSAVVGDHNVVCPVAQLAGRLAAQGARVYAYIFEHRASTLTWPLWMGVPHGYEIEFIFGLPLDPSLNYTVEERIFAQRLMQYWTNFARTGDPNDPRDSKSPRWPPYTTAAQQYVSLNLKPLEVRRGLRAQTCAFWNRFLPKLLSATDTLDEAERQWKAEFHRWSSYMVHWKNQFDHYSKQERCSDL
Observable: pIC50
Keep in mind that pIC50 stands for -log10 of concentration in molar terms.

QUERY: Which pIC50 is reported for this compound? CCN(CC)Cc1ccc(OC)c(OC(=O)N(C)C)c1
RESULT: 5.83

QUERY: Which pIC50 is reported for this compound? COc1ccc(C(C)N2CCCCC2)cc1OC(=O)N(C)C (stereo not drawn)
RESULT: 5.85

QUERY: Which pIC50 is reported for this compound? COc1ccc(CN2CCCCC2)cc1OC(=O)N(C)C
RESULT: 6.18
